Task for the reader: assign each of the following compounds its reported log10(IC50).
Molecular target: C-C chemokine receptor type 5 (Homo sapiens, UniProt P51681)
Sequence (P51681 whole entry): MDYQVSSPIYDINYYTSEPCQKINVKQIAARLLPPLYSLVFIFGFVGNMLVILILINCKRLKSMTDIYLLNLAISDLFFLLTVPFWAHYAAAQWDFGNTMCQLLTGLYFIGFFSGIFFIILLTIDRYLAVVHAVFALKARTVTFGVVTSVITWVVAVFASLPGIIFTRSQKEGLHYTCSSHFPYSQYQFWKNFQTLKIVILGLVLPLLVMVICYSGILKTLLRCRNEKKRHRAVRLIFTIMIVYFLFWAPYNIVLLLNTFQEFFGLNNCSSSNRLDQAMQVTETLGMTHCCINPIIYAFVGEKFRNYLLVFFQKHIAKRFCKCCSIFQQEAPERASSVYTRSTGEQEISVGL
Experiment: biochemical
Format: cell-based, CHO
Description: Displacement of [125I]-labeled MIP-1alpha from the C-C chemokine receptor type 5 expressed on CHO cell membranes
Please be aware that the numbers have been log10-transformed from IC50 in nM.

Completed entries (count: 2):
- entry_smiles: "O=C(O)c1ccccc1CCCC1(O)CCN(C[C@H]2CN(CC3CCCCC3)C[C@@H]2c2ccccc2)CC1"
  log10(IC50): 2.00
- entry_smiles: "O=C(O)CCc1ccc(CCCC2(O)CCN(C[C@H]3CN(CC4CCCCC4)C[C@@H]3c3ccccc3)CC2)cc1"
  log10(IC50): 0.30

Could you tell me log10(IC50) for each of these compounds? They are listed below.
1. O=C(O)c1cccc(CCCC2(O)CCN(C[C@H]3CN(CC4CCCCC4)C[C@@H]3c3ccccc3)CC2)c1
2. C[n+]1n[nH]c(-c2ccc(CCCC3(O)CCN(C[C@H]4CN(CC5CCCCC5)C[C@@H]4c4ccccc4)CC3)cc2)n1
3. OC1(CCCc2ccc(Cc3nnn[nH]3)cc2)CCN(C[C@H]2CN(CC3CCCCC3)C[C@@H]2c2ccccc2)CC1
4. OC1(CCCc2ccc(-c3nnn[nH]3)cc2)CCN(C[C@H]2CN(CC3CCCCC3)C[C@@H]2c2ccccc2)CC1
5. Cn1nnnc1-c1ccc(CCCC2(O)CCN(C[C@H]3CN(CC4CCCCC4)C[C@@H]3c3ccccc3)CC2)cc1
6. O=C(O)Cc1ccc(CCCC2(O)CCN(C[C@H]3CN(CC4CCCCC4)C[C@@H]3c3ccccc3)CC2)cc1
7. O=C(O)Cc1cccc(CCCC2(O)CCN(C[C@H]3CN(CC4CCCCC4)C[C@@H]3c3ccccc3)CC2)c1
8. O=C(O)c1ccc(CCCC2(O)CCN(C[C@H]3CN(CC4CCCCC4)C[C@@H]3c3ccccc3)CC2)cc1

[0.48, -0.40, 0.00, -0.70, -0.70, 0.70, 0.78, 1.00]
